Test system: MS2 coat protein
test: apparent KD of MS2 coat protein; designed switch direction (-1 OFF switch, 1 ON switch): -1; higher = weaker reporter binding
experimentalConditions: Eterna round: R95; input ligand: FMN 200 uM
// reported apparent KD of MS2 coat protein for each item listed

API: value(readout= apparent KD of MS2 coat protein, system= MS2 coat protein, query= GGAGCGAUUCUCUUAGCAGACAUGAGGAUCACCCAUGUAUGCAAGCUCUUAUUUUGCUCGUCUUACCGGGAGUUGCU [Ridizaer] (puzzle: Sensor v3, turn-off variant 1) ) 13.6 nM

Reported apparent KD of MS2 coat protein for MS2 coat protein, given UGGGUUCUCCAUAGAAGUAACAUGAGGAUCACCCAUGUAGGGCAAGUUUUUUGCUCGUCAUAGGUUGUGGGUUUGGA [JR_SV3TOV1_Sub018] (puzzle: Sensor v3, turn-off variant 1) ? 578 nM

# value lookup — system MS2 coat protein, readout apparent KD of MS2 coat protein, item GGAAGUAGAAACCGAUCCUACAUGAGGAUCACCCAUGUAGCAAGACGUGCACGCGAAGCUCGUCAGACUACCAGAAC [salish99_TOv1_r3_012] (puzzle: Sensor v3, turn-off variant 1) 204 nM

apparent KD of MS2 coat protein of CUGAUGUCAGGAUAUCAGAAAAGGCACAAGAACGCGCCAAAUGAGAAGGGACAUGAGGAUCACCCAUGUAAAAC [Reena] (puzzle: Exclusion 4) on MS2 coat protein? 87.1 nM

// lookup apparent KD of MS2 coat protein | system=MS2 coat protein | key= UCUGGUCGGAAGGAUAUGGUCGGGUCAAAUCGGCCAGAAGGUCUGACAUGAGGAUCACCCAUGUGAGUCCAAAG [Esceus] (puzzle: Exclusion 6) 51.7 nM

apparent KD of MS2 coat protein of GGGUGUCCAGUGAGGAUAUCCAACGCUAAGGCGCAGGAGAAGGCACAUGAGGAUCACCCAUGUAGCUGAAGAAA [Onerbegeso] (puzzle: Brourd's mod of Exclusion 4) on MS2 coat protein? 49.9 nM

Can you look up apparent KD of MS2 coat protein on MS2 coat protein for AGUACUAACACGUCAGUGUUAGUACAAUAAGCUUGUGAAACAUGAGGAUCACCCAUGUCCUCAUAAGCUCGUCUUAU [salish99_TOv2_r3_062] (puzzle: Sensor v3, turn-off variant 2) ? 17.3 nM

State its apparent KD of MS2 coat protein on MS2 coat protein: CAUGAUCUUCGGAUCAUGUACAUGAGGAUCACCCAUGUGACGAGUAGAUCCUCAAACAAGCUUUUUGCUCGUCUUAU [Sensor v3 - Turn-off variant 1 - 19] (puzzle: Sensor v3, turn-off variant 1) 50.7 nM

Request: apparent KD of MS2 coat protein, test system MS2 coat protein, entry CUUAGACAUGAGGAUCACCCAUGUGAGGAUAUGAUGCGAAUAAGGAAGGAAGAAAGCAUCAGAAGGCACAUAUG [Mat - Mod of Hyphema D25] (puzzle: Exclusion 1) 161 nM

Find apparent KD of MS2 coat protein (MS2 coat protein) for the entry AAUAAUGGAGGAUAUACAUGAGGAUCACCCAUGUGAAUAAAAUAAAUAAAAUGAUAAAGUAGAAGGCCAAAUAA [JMF's solution 2] (puzzle: Exclusion 3) 42.7 nM
